Listing of recorded TGI by entry.
System: SK-MEL-5 melanoma
Assay: NCI tumour cell line growth inhibition, 48 h

>>> result("O=C1c2ccccc2C(=O)N1CCN(CCN1C(=O)c2ccccc2C1=O)Cc1ccccc1")
"> 100 µM"
>>> result("CC[P+](C)(C)CC")
"> 100 µM"
>>> result("COc1cccc(C2=C(c3cn(C)c4c(C)cccc34)C(=O)NC2=O)c1")
"> 25 µM"

Continue with the compound presented below.
Problem: Record lookup: for SK-MEL-5 melanoma, what TGI belongs to O=C(O)CNc1ncc2c(n1)-c1ccccc1OC2 ?
Solution: > 100 µM

----------
Test system: CCRF-CEM leukemia
Test: NCI tumour cell line growth inhibition, 48 h
Listing of recorded TGI by entry.

Below, 5 compounds whose answers are already recorded.
>>> result("O=C(N/N=C\\c1ccc([N+](=O)[O-])cc1)Nc1ccc2ccccc2c1")
"> 100 µM"
>>> result("CSc1cc(Cl)c(C(=O)Nc2ccccc2)cc1S(=O)(=O)n1cc[nH]c1=O")
"> 100 µM"
>>> result("COc1ccc2[nH]c(=O)cc(C)c2c1[N+](=O)[O-]")
"> 100 µM"
>>> result("COc1ccccc1OC/C(N=Cc1cccnc1)=N/NC(=O)c1ccncc1")
"> 100 µM"
>>> result("NC(=O)c1c(-c2ccccc2)c(-c2ccccc2)cc2c(=O)c3ccccc3[nH]c12")
"> 100 µM"

Problem: I would be grateful if you could share the reported TGI for Clc1nc(NC23CC4CC(CC(C4)C2)C3)nc(NC23CC4CC(CC(C4)C2)C3)n1 .
Solution: > 90.8 µM

----------
System: SF-295 CNS
Assay: NCI tumour cell line growth inhibition, 48 h
Listing of recorded TGI by entry.

Below, 7 compounds whose answers are already recorded.
>>> result("CC1CCC2C(C(=O)O[C@H]3C4C=CO[C@@H](OC5OC(CO)C(O)C(O)C5O)C4[C@@]4(CO)O[C@@H]34)=CO[C@@H](OC3OC(CO)C(O)C(O)C3O)C12 (stereo partly drawn)")
"> 10 µM"
>>> result("COc1cc(Br)c(C=Nc2cccc3ccc(OS(=O)(=O)c4ccc([N+](=O)[O-])cc4)cc23)cc1OC")
"> 100 µM"
>>> result("O=C1Sc2sc(=S)sc2SC1c1ccccc1 (stereo not drawn)")
"> 100 µM"
>>> result("C#CCNC(CCCN=C(N)N)C(=O)O (stereo not drawn)")
"> 100 µM"
>>> result("CCOC(=O)CCC(NC(=O)c1ccc(Oc2nc3cc(N)cc(N)c3nc2-c2ccccc2)cc1)C(=O)OCC (stereo not drawn)")
"> 100 µM"
>>> result("O=C1C=C(c2ccccc2)NC1(c1ccccc1)c1cc(-c2ccccc2)[nH]c1-c1ccccc1 (stereo not drawn)")
"> 100 µM"
>>> result("CC(C)(C)c1ccc(OCCCCCCCN2CCNCC2)cc1")
"3.78 µM"

Continue with the compound presented below.
Problem: I would be grateful if you could share the reported TGI for C=CCN=C1NC(=O)C(CC(=O)Nc2ccc([N+](=O)[O-])cc2[N+](=O)[O-])S1 (stereo not drawn) .
Solution: > 100 µM

----------
System: UACC-62 melanoma
Assay: NCI tumour cell line growth inhibition, 48 h
measured-attribute: TGI

Below, 2 compounds whose answers are already recorded.
>>> result("O=C(NC1C(=O)NC(CCc2ccccc2)NC1=O)OCc1ccccc1 (stereo not drawn)")
"> 100 µM"
>>> result("COc1ccc(-c2c(C#N)c(N)nc(Sc3ccccc3N)c2C#N)cc1")
"> 44.5 µM"

Problem: I would be grateful if you could share the reported TGI for CSc1cc(Cl)c(C(=O)Nc2ccccc2)cc1S(=O)(=O)n1cc[nH]c1=O .
Solution: > 100 µM
